Origin of values: patent US20260116991A1

Target: monkey GPC3-His protein (monkey)
Experiment: ELISA, monkey GPC3-His coated; antibody 13.33 nM
Readout Type: OD450 nm
Answer with a bare number; do not write a unit.

Kindly indicate its recorded OD450 nm. Item: hAb005LH1L1 (antibody, human IgG1, V domains shown) VH: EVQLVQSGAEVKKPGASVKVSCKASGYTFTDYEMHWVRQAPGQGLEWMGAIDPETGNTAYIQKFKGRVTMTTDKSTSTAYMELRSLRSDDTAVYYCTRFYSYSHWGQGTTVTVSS VL: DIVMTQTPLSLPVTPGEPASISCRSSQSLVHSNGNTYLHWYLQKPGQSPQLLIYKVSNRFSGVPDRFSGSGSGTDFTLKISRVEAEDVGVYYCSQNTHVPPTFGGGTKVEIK 1.22

Specify measured OD450 nm for hAb006LH1L1b (antibody, human IgG1, V domains shown) VH: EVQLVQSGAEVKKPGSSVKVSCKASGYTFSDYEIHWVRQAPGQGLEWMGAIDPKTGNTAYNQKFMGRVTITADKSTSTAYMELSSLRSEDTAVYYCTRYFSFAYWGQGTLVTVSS VL: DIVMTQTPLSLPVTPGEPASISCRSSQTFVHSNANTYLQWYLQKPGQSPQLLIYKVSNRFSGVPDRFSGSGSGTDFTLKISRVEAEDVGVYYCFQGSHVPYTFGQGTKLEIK . 2.5

For the binder hAb007LH3L1a (antibody, human IgG1, V domains shown) VH: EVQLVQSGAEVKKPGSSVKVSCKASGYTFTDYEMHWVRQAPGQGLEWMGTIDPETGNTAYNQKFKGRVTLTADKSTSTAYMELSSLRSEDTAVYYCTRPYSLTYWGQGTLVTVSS VL: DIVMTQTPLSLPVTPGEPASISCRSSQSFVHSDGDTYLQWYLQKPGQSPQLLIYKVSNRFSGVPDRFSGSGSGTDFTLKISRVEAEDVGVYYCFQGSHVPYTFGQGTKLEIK , report OD450 nm. 2.37
